Values compiled from paper PMC4554882.

- Assay: Aqueous solubility
- Format: physicochemical
- Run parameters: pH 7.4, Solubility (μg/mL), mean ± SD of three experiments
Value kind: solubility at 4 h
# answer = value followed by unit

Q: Recorded solubility at 4 h for COc1ccc2c(c1)CCCN2c1nc(NCCCO)nc2ccccc12 , please?
A: 75 µg/mL
